Listed here are compounds together with their documented IC50.
biological target: Orai1/STIM1 (Homo sapiens, UniProt Q96D31); construct: c-myc (C); experiment: Fluorescence-based assay of store-operated calcium entry in Orai1/STIM1 stable cells; conditions: HEK-293 cells stably expressing human STIM1 and Orai1; inhibition of Peak-Basal fluorescence signal after calcium addition; read-out: Orai1/STIM1 (IC50, μmol)
Sequence (Q96D31 whole entry): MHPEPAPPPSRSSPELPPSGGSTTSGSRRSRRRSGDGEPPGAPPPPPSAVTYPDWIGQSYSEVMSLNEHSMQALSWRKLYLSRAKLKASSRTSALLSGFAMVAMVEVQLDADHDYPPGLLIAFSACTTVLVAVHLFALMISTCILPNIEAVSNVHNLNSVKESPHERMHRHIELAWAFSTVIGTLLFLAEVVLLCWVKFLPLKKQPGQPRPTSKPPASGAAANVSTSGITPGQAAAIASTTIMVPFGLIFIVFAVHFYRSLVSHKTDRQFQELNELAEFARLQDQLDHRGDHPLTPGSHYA

# compound, IC50
records = [
    ("Cc1cc2c(cc1-c1cnc(NCc3c(F)cc(F)cc3F)cn1)OC(F)(F)O2 [Compound 23]", "600 to 1200 nM"),
    ("Cc1cc(F)ccc1CNc1ccc(-c2nc3c(cc2Cl)OCCO3)cn1 [Compound 46]", "600 to 1200 nM"),
    ("Cc1cc2c(cc1-c1ccc(NCc3c(F)cccc3Cl)nc1)OC(F)(F)O2 [Compound 22]", "> 1200 nM"),
    ("Fc1cc(F)c(CNc2ccc(Oc3ccccc3C(F)(F)F)cn2)c(F)c1 [Compound 134]", "< 600 nM"),
    ("Cc1cc(C(F)(F)F)nn1-c1ccc(NCc2c(F)cccc2F)nc1 [Compound 116]", "< 600 nM"),
    ("Cn1nc(C(F)(F)F)cc1-c1ccc(NCc2ccc(F)cc2F)nc1 [Compound 80]", "< 600 nM"),
    ("FC1(F)Oc2cc(Cl)c(-c3ccc(NCc4ccccc4Cl)nc3)cc2O1 [Compound 10]", "> 1200 nM"),
    ("Cc1cc2c(cc1-c1ccc(NCc3c(F)cccc3F)cn1)OC(F)(F)O2 [Compound 6]", "< 600 nM"),
    ("Cc1cc(C(F)(F)F)nn1-c1ccc(NCc2c(F)cc(F)cc2F)nc1 [Compound 118]", "< 600 nM"),
]
